- ASSAY: Human HepG2 cell viability assay in 384 well format
- Format: toxicity, cell-based
- Design: dose 125 nL, time 70.5 hour; concentration not given beside the values
- COND: HepG2 cells, read-out: Inhibition
Would you mind telling me the reported cytotoxicity at 70.5 h of each entry?
Numbers only, in %.

Please review the entries below; each comes with its answer.
[
  {
    "COMPOUND": "Cc1nc(C)c(C(=O)N2Cc3cc(F)ccc3CC2C)o1 (stereo not drawn)",
    "MEASUREMENT": -3.47
  },
  {
    "COMPOUND": "C=C(C)COc1ccccc1C(=O)NCCc1nncn1C",
    "MEASUREMENT": 25.1
  },
  {
    "COMPOUND": "CCc1cc(C(=O)N2Cc3ccccc3OC3(CCOCC3)C2)on1",
    "MEASUREMENT": 8.33
  },
  {
    "COMPOUND": "O=C(c1occc1CN1C(=O)Cc2ccccc21)N1CC(O)C1",
    "MEASUREMENT": -1.51
  },
  {
    "COMPOUND": "CC(=O)N(C)CC(=O)NC(C)c1ccc(OCCC(C)C)cc1 (stereo not drawn)",
    "MEASUREMENT": -3.81
  }
]

Take each entry in turn and give its cytotoxicity at 70.5 h.
1. COCC(=O)N1CCN(S(=O)(=O)c2cccs2)[C@H]2CS(=O)(=O)C[C@H]21
2. COc1cccc(-c2cc(C(=O)NCCCn3nc(C)cc3C)[nH]n2)c1
3. Cc1csc(CN2CC[C@H]3C[C@H](C)O[C@@H]3C2)n1
4. CN(C(=O)c1ccc(OCC(F)F)nc1)c1ccc2c(c1)CCO2
5. CCS(=O)(=O)N1Cc2c(Cn3cccc3)nn(C(C)C)c2C1
6. Cn1nc2c(cc1=O)CN(CC(=O)Nc1nccs1)CC2
7. Cc1ccncc1C(=O)N1CC[C@@]2(O)CCN(C3CCCCC3)C[C@H]2C1
8. CCn1cnnc1CNC(=O)N1CCC(CN2CCCCCC2)CC1

Response line:
1: -7.15; 2: -1.83; 3: -10.4; 4: -4.77; 5: -2.77; 6: -3.23; 7: -3.63; 8: -7.73
